Every entry's value here was drawn from patent US20260083851A1.

target_or_test_system: ASGPR receptor on HepG2 cells (ternary complex with AF488-labeled antibody) (Homo sapiens)
Construct: host or cells: HepG2
Sequence (P07306 whole entry): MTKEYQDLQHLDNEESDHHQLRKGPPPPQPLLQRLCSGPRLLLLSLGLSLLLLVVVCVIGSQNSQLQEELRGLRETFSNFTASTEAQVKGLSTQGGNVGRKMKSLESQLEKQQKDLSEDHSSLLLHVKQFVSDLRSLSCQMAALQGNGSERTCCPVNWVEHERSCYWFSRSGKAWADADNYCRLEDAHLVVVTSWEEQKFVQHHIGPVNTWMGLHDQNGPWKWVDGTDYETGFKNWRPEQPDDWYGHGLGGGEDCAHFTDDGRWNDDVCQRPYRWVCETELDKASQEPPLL
Sequence (P07307 whole entry partner): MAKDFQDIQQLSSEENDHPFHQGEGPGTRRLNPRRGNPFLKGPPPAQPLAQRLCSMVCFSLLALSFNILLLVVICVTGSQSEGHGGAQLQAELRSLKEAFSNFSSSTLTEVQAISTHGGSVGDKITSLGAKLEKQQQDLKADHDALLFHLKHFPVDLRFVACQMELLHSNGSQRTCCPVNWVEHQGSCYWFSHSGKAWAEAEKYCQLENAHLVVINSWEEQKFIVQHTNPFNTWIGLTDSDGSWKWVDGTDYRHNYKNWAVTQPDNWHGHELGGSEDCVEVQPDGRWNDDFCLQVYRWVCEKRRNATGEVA
test_name: Ternary complex formation assay (flow cytometry, cell-associated AF488 fluorescence)
Type: cell-based
condition_info: read-out: TCF EC50, 100 nM AF488-labeled antibody, 1 hour at 4° C., the 25th table, class symbols
Attribute: EC50

Answered cases to consult:
CC(C)CC1NC(=O)C(Cc2cnc[nH]2)NC(=O)C(Cc2c[nH]c3ccccc23)NC(=O)C(C)NC(=O)C2CSSCC(NC(=O)C(Cc3c[nH]c4ccccc34)NC(=O)C(C(C)C)NC(=O)C(CC(C)C)NC(=O)C(CCC(=O)O)NC(=O)CNC1=O)C(=O)NC(C(C)O)C(=O)N1CCCC1C(=O)N1CC(NC(=O)c3ccc(N4CCC(CN5CCN(CC6OCC(Nc7cncc(C(F)(F)F)n7)C(O)C6O)CC5)CC4)cc3)CC1C(=O)NC(CC(=O)O)C(=O)N2 (stereo not drawn) [compound 44] :: < 100 nM
CC(C)CC1NC(=O)C(Cc2cnc[nH]2)NC(=O)C(Cc2c[nH]c3ccccc23)NC(=O)C(C)NC(=O)C2CSSCC(NC(=O)C(Cc3c[nH]c4ccccc34)NC(=O)C(C(C)C)NC(=O)C(CC(C)C)NC(=O)C(CCC(=O)O)NC(=O)CNC1=O)C(=O)NC(C(C)O)C(=O)N1CCCC1C(=O)N1CC(NC(=O)CCN3CCN(CC(=O)NCC4OCC(Nc5cncc(C(F)(F)F)n5)C(O)C4O)CC3)CC1C(=O)NC(CC(=O)O)C(=O)N2 (stereo not drawn) [compound 39] :: < 100 nM

Proceeding to the next compound to report its EC50.
## Input Identify measured EC50 associated with CC(C)CC1NC(=O)C(Cc2cnc[nH]2)NC(=O)C(Cc2c[nH]c3ccccc23)NC(=O)C(C)NC(=O)C2CSSCC(NC(=O)C(Cc3c[nH]c4ccccc34)NC(=O)C(C(C)C)NC(=O)C(CC(C)C)NC(=O)C(CCC(=O)O)NC(=O)CNC1=O)C(=O)NC(C(C)O)C(=O)N1CCCC1C(=O)N1CC(NC(=O)c3ccc(C(=O)NCC4OCC(Nc5cncc(C(F)(F)F)n5)C(O)C4O)cc3)CC1C(=O)NC(CC(=O)O)C(=O)N2 (stereo not drawn) [compound 43]
## Output > 1000 nM
